Tested on: extracellular chromatin (NETs)
Assay: Extracellular chromatin (NETs) binding to coated nitinol disks, Sytox Green staining
Design: species or system human
Conditions: coated nitinol disks applied 3 minutes on nigericin-stimulated human neutrophils; mean±SEM, 6/coating
VALUE TYPE: Chomatin binding (% of max)

**Q:** Entry CCCCCOCCCCCN=[N+]=[N-] [Pipe-2] , system extracellular chromatin (NETs): what Chomatin binding (% of max) was measured?
**A:** 57.5 7.05 % of max

**Q:** Field: Chomatin binding (% of max) (extracellular chromatin (NETs)). Entry: [N-]=[N+]=NCCOCCOCCNC(=O)CCc1ccc(N(CCCl)CCCl)cc1 [PPM]
**A:** 36.75 ± 5.78 % of max

**Q:** I'm curious: which Chomatin binding (% of max) was measured for Cn1cc(NC(=O)c2cc(NC(=O)c3cc(NC=O)cn3C)cn2C)cc1C(=O)NCCC(=N)N [Distamycin, reference compound] tested on extracellular chromatin (NETs)?
**A:** 12.26 ± 4.14 % of max

**Q:** Give recorded Chomatin binding (% of max) with extracellular chromatin (NETs) for the following molecule: O=C(O)c1cn(C2CC2)c2cc(N3CCNCC3)c(F)cc2c1=O [Ciprofloxacin, reference compound]
**A:** 23.63 ± 9.59 % of max

**Q:** Form field - read-out: Chomatin binding (% of max); system: extracellular chromatin (NETs); submitted item: [N-]=[N+]=NCCOCCOCCNC(=O)c1cc2cc(N(CCCl)CCCl)ccc2o1 [MBF]
**A:** 66.07 ± 13.21 % of max
